Every entry's value here was drawn from paper PMC9007951.

# experiment: Timed organ biodistribution of [^64Cu]Cu-DOTATATE by ex vivo gamma counting
# Assay type: in vivo, mice
# experimental-parameters: mouse, kidneys, intravenous, 1.85 MBq, total radioactivity; female Apoe^-/- mice 12 weeks on Western Diet, 30 min after injection, median (IQR), N=3-8; read-out: Tissue radioactivity, kidneys
reported-endpoint: tissue uptake at 0.5 h (%ID/g)

* C[C@@H](O)[C@H](NC(=O)[C@@H]1CSSC[C@H](NC(=O)[C@@H](Cc2ccccc2)NC(=O)CN2CCN(CC(=O)O)CCN(CC(=O)O)CCN(CC(=O)O)CC2)C(=O)N[C@@H](Cc2ccc(O)cc2)C(=O)N[C@H](Cc2c[nH]c3ccccc23)C(=O)N[C@@H](CCCCN)C(=O)N[C@@H]([C@@H](C)O)C(=O)N1)C(=O)O [[^64Cu]Cu-DOTATATE, metal not drawn] | 8.8
